Attribution: ChEMBL document CHEMBL1127186

- Test name: Compound was evaluated for the inhibition of antibody (Antibody 48G7) catalyzed reaction
Readout: Ki
Form entry: enter the amount, then its unit.

Which measured Ki value corresponds to Cc1cccc(P(=O)(O)O)c1[N+](=O)[O-] [METHYLNITROPHENYLPHOSPHONATE] ?
560 nM
